test system: HepG2 cells; conditions: read-out: HEP2G, CC50 (24 h); 24 h
EXPERIMENTAL READOUT: CC50

In: Short answer please: CC50, HepG2 cells, entry COC(=O)[C@H]1[C@@H](O)[C@@]2(O)c3c(F)cc(F)cc3O[C@@]2(c2ccc(OC)cc2)[C@@H]1c1ccccc1 (racemic)
Out: > 1000 nM

###

So I've got a bunch of compounds here, and I need their pEC50 values.
test system: SARS-CoV-2; experiment: microbe, parasite or virus in culture; format: cell-based; conditions: Severe acute respiratory syndrome coronavirus 2, Vero C1008, 48 h
Give bare numbers, as −log10 of the molar value.

- COMPOUND: "COC(=O)[C@H]1[C@@H](O)[C@@]2(O)c3c(OC)cc(Br)cc3O[C@@]2(c2ccc(OC)cc2)[C@@H]1c1ccccc1 (racemic)"
  OBSERVED RESULT: 7.32
- COMPOUND: "COC(=O)[C@H]1[C@@H](O)[C@@]2(O)c3c(Cl)cc(Cl)cc3O[C@@]2(c2ccc(OC)cc2)[C@@H]1c1ccccc1 (racemic)"
  OBSERVED RESULT: 6.75

Query compound follows.
In: Entry CONC(=O)[C@H]1[C@@H](O)[C@@]2(O)c3c(Cl)cc(Br)cc3O[C@@]2(c2ccc(OC)cc2)[C@@H]1c1ccccc1 (racemic) [14f] : reported pEC50 = ?
Out: 6.72

###

assay: in vitro; conditions: human
Under this convention, 1 denotes CC50 at 48 h strictly below 0.06 µM and -1 denotes CC50 at 48 h at or above 0.06 µM.

- COMPOUND: "CONC(=O)[C@H]1[C@@H](O)[C@@]2(O)c3c(F)cc(OC)cc3O[C@@]2(c2ccc(OC)cc2)[C@@H]1c1ccccc1 (racemic) [14hb]"
  CLASS: 1
- COMPOUND: "COC(=O)[C@H]1[C@@H](O)[C@@]2(O)c3c(Cl)cc(OC)cc3O[C@@]2(c2ccc(OC)cc2)[C@@H]1c1ccccc1 (racemic)"
  CLASS: -1

In: Field: below-cutoff. Rule: recorded CC50 at 48 h strictly less than 0.06 µM. Subject: COC(=O)[C@H]1[C@@H](O)[C@@]2(O)c3c(Br)cc(OC)cc3O[C@@]2(c2ccc(OC)cc2)[C@@H]1c1ccccc1 (racemic)
Out: -1

In: Do the same for COCOc1cc(F)c2c(c1)O[C@@]1(c3ccc(Br)cc3)[C@H](c3ccccc3)[C@@H](C(=O)OC)[C@@H](O)[C@@]21O (racemic) please
Out: -1

In: Here is the next compound: COCOc1cc(F)c2c(c1)O[C@@]1(c3ccc(OC)cc3)[C@H](c3ccccc3)[C@@H](C(=O)OC)[C@@H](O)[C@@]21O (racemic)
Out: -1

In: Now the same for COC(=O)[C@H]1[C@@H](O)[C@@]2(O)c3c(Br)cc(Br)cc3O[C@@]2(c2ccc(OC)cc2)[C@@H]1c1ccccc1 (racemic)
Out: -1

In: And then CONC(=O)[C@H]1[C@@H](O)[C@@]2(O)c3c(Cl)cc(Br)cc3O[C@@]2(c2ccc(OC)cc2)[C@@H]1c1ccccc1 (racemic) [14f] , what is it?
Out: 1

In: And what about the compound COC(=O)[C@H]1[C@@H](O)[C@@]2(O)c3c(OC)cc(OC)cc3O[C@@]2(c2ccc(OC)cc2)[C@@H]1c1ccccc1 (racemic) [(±)-methyl rocaglate (11bc), reference compound] ?
Out: -1

In: Entry COC(=O)[C@H]1[C@@H](O)[C@@]2(O)c3c(Br)cc(Cl)cc3O[C@@]2(c2ccc(OC)cc2)[C@@H]1c1ccccc1 (racemic) please
Out: -1

In: Try COc1cc(OC)c2c(c1)O[C@@]1(c3ccc(Cl)cc3)[C@H](c3ccccc3)[C@@H](C(=O)N(C)C)[C@@H](O)[C@@]21O (racemic) [14aa] next.
Out: 1

In: Param item: COC(=O)[C@H]1[C@@H](O)[C@@]2(O)c3c(OC)cc(OC)cc3O[C@@]2(c2ccc(F)cc2)[C@@H]1c1ccccc1 (racemic) [11ba]
Out: -1

In: Another compound: COc1ccc([C@@]23Oc4cc(OC)cc(OC)c4[C@]2(O)[C@H](O)[C@H](C(=O)N(C)C)[C@H]3c2ccccc2)cc1 (racemic) [(±)-rocaglamide (rac-1b), reference compound]
Out: 1

###

system: HEV-3 replicon p6-Gluc; assay: microbe, parasite or virus in culture; format: cell-based, Hepatitis E virus; conditions: Hepatitis E virus, HepG2, 24 h
I'd be grateful if you could share measured EC90 for these entries.
One number for each entry, in nM.

Would you please look over these solved cases?
- COMPOUND: "COC(=O)[C@H]1[C@@H](O)[C@@]2(O)c3c(Br)cc(Br)cc3O[C@@]2(c2ccc(OC)cc2)[C@@H]1c1ccccc1 (racemic) [9e]"
  EC90 / nM: 362
- COMPOUND: "COC(=O)[C@H]1[C@@H](O)[C@@]2(O)c3c(OC)cc(OC)cc3O[C@@]2(c2ccc(Cl)cc2)[C@@H]1c1ccccc1 (racemic) [9a]"
  EC90 / nM: 140
- COMPOUND: "COC(=O)[C@H]1[C@@H](O)[C@@]2(O)c3c(Br)cc(OC)cc3O[C@@]2(c2ccc(OC)cc2)[C@@H]1c1ccccc1 (racemic) [9l]"
  EC90 / nM: 343
- COMPOUND: "CONC(=O)[C@H]1[C@@H](O)[C@@]2(O)c3c(Cl)cc(Cl)cc3O[C@@]2(c2ccc(OC)cc2)[C@@H]1c1ccccc1 (racemic) [14da]"
  EC90 / nM: 172
- COMPOUND: "COC(=O)[C@H]1[C@@H](O)[C@@]2(O)c3c(OC)cc(OC)cc3O[C@@]2(c2ccc(OC)cc2)[C@@H]1c1ccccc1 (racemic) [(±)-methyl rocaglate (11bc), reference compound]"
  EC90 / nM: 631
- COMPOUND: "COCOc1cc(F)c2c(c1)O[C@@]1(c3ccc(Br)cc3)[C@H](c3ccccc3)[C@@H](C(=O)OC)[C@@H](O)[C@@]21O (racemic) [9nb]"
  EC90 / nM: 345

Report EC90 for each item below.
1. CONC(=O)[C@H]1[C@@H](O)[C@@]2(O)c3c(F)cc(OC)cc3O[C@@]2(c2ccc(OC)cc2)[C@@H]1c1ccccc1 (racemic) [14hb]
2. CONC(=O)[C@H]1[C@@H](O)[C@@]2(O)c3c(OC)cc(Br)cc3O[C@@]2(c2ccc(OC)cc2)[C@@H]1c1ccccc1 (racemic) [14m]
3. COC(=O)[C@H]1[C@@H](O)[C@@]2(O)c3c(Cl)cc(Br)cc3O[C@@]2(c2ccc(OC)cc2)[C@@H]1c1ccccc1 (racemic) [9f]
4. COc1ccc([C@@]23Oc4cc(OC)cc(OC)c4[C@]2(O)[C@H](O)[C@H](C(=O)N(C)C)[C@H]3c2ccccc2)cc1 (racemic) [(±)-rocaglamide (rac-1b), reference compound]

Out:
1. 91.2
2. 328
3. 583
4. 213

###

tested on: HEV-3 replicon p6-Gluc; assay: microbe, parasite or virus in culture; type: cell-based, Hepatitis E virus; conditions: Hepatitis E virus, HepG2, 48 h, read-out: HEV, EC50 (48 h, nM)
EXPERIMENTAL READOUT: EC50

In: Using the record for COC(=O)[C@H]1[C@@H](O)[C@@]2(O)c3c(F)cc(F)cc3O[C@@]2(c2ccc(OC)cc2)[C@@H]1c1ccccc1 (racemic) , report its EC50.
Out: > 1000 nM

###

experiment: in vitro; details: African green monkey (Chlorocebus sp.)
EXPERIMENTAL READOUT: CC50

- COMPOUND: "CONC(=O)[C@H]1[C@@H](O)[C@@]2(O)c3c(Cl)cc(Br)cc3O[C@@]2(c2ccc(OC)cc2)[C@@H]1c1ccccc1 (racemic) [14f]"
  CC50: "> 1000 nM"

Parameter requested: CC50. Apply to each item below.
1. COC(=O)[C@H]1[C@@H](O)[C@@]2(O)c3c(OC)cc(Br)cc3O[C@@]2(c2ccc(OC)cc2)[C@@H]1c1ccccc1 (racemic) [9m]
2. COC(=O)[C@H]1[C@@H](O)[C@@]2(O)c3c(Cl)cc(Cl)cc3O[C@@]2(c2ccc(OC)cc2)[C@@H]1c1ccccc1 (racemic) [9da]

Out:
1. > 1000 nM
2. > 1000 nM

###

experiment: in vitro; settings: human
Label Yes when CC50 at 24 h is strictly below 0.5 µM; otherwise label No.

Sample answers from the record:
- COMPOUND: "CONC(=O)[C@H]1[C@@H](O)[C@@]2(O)c3c(OC)cc(Br)cc3O[C@@]2(c2ccc(OC)cc2)[C@@H]1c1ccccc1 (racemic) [14m]"
  CLASS: "No"
- COMPOUND: "COc1ccc([C@@]23Oc4cc(OC)cc(OC)c4[C@]2(O)[C@H](O)[C@H](C(=O)N(C)C)[C@H]3c2ccccc2)cc1 (racemic) [(±)-rocaglamide (rac-1b), reference compound]"
  CLASS: "No"
- COMPOUND: "COC(=O)[C@H]1[C@@H](O)[C@@]2(O)c3c(Br)cc(OC)cc3O[C@@]2(c2ccc(OC)cc2)[C@@H]1c1ccccc1 (racemic)"
  CLASS: "No"

In: CC50 at 24 h under 0.5 µM? Item: COC(=O)[C@H]1[C@@H](O)[C@@]2(O)c3c(OC)cc(Br)cc3O[C@@]2(c2ccc(OC)cc2)[C@@H]1c1ccccc1 (racemic)
Out: Yes

In: Next compound: COc1cc(OC)c2c(c1)O[C@@]1(c3ccc(F)cc3)[C@H](c3ccccc3)[C@@H](C(=O)N(C)C)[C@@H](O)[C@@]21O (racemic)
Out: No

In: Next compound: CONC(=O)[C@H]1[C@@H](O)[C@@]2(O)c3c(Cl)cc(Br)cc3O[C@@]2(c2ccc(OC)cc2)[C@@H]1c1ccccc1 (racemic) [14f]
Out: Yes

In: Try the compound COC(=O)[C@H]1[C@@H](O)[C@@]2(O)c3c(Cl)cc(Br)cc3O[C@@]2(c2ccc(OC)cc2)[C@@H]1c1ccccc1 (racemic)
Out: No

In: Entry COC(=O)[C@H]1[C@@H](O)[C@@]2(O)c3c(OC)cc(Cl)cc3O[C@@]2(c2ccc(OC)cc2)[C@@H]1c1ccccc1 (racemic) please
Out: Yes

In: Repeat for the following compound: COC(=O)[C@H]1[C@@H](O)[C@@]2(O)c3c(Br)cc(Br)cc3O[C@@]2(c2ccc(OC)cc2)[C@@H]1c1ccccc1 (racemic)
Out: No

In: // same read-out, input: COCOc1cc(F)c2c(c1)O[C@@]1(c3ccc(OC)cc3)[C@H](c3ccccc3)[C@@H](C(=O)OC)[C@@H](O)[C@@]21O (racemic)
Out: No
